tested on: OVCAR-4; assay: NCI tumour cell line growth inhibition, 48 h
Active and inactive are the calls of the source. Rule as the data show it: active = GI50 up to about 1.1 µM and inactive = higher.
Please reply with one of these outcomes: active, inactive

Below are worked cases with known answers.
compound	class label
CCC(C=O)P1(=O)OC(C)(C)CN1C(C)(C)C (stereo not drawn)	inactive
O=c1oc2ccccc2c(O)c1C(C/C(CCN1CCCC1)=N/O)c1ccccc1 (stereo not drawn)	inactive

Task: Recorded call for COc1cc2c(cc1OC)C(N(C)C)C(c1ccccc1)=C2Cl (stereo not drawn) ?
Output: inactive

Task: Hi team, can someone confirm the assay call for CC(=O)Nc1ccc2c3c(cc(O)c2c1)N(C(=O)CCCCCC(=O)Nc1ccc2c4c(cc(O)c2c1)N(C(=O)OC(C)(C)C)CC4CCl)CC3CCl (stereo not drawn) ?
Output: inactive

Task: Given `NNc1cnn(-c2ccccc2)c(=O)c1Cl` , state the outcome it received in this test.
Output: inactive

Task: Would you mind telling me which call this test gave COC(=O)C1=CC(O)CCC1c1ccc(OC)cc1 (stereo not drawn) ?
Output: inactive

Task: Entry `CCN(CC)CCNc1ccc2ncn3c4ccc(OC)cc4c(=O)c1c23` : call = ?
Output: inactive

Task: Kindly provide the recorded test outcome for the following compound: `COc1ccccc1-c1cc(O)c2ccc(C)nc2n1`
Output: inactive

Task: # fetch the recorded call for `Cc1c(C)c(S(=O)(=O)N(CCCN)OCCCN)c(C)c2c1OC(C)(C)CC2` here
Output: inactive

Task: Can you look up the reported call for `COc1cc(OC)c2c(=O)cc(-c3ccccc3F)[nH]c2c1` for me?
Output: inactive
